Values were extracted from PubChem BioAssay (EPA / NIEHS).

- measurement-notes: ATG_NRF2_ARE_CIS: Attagene CIS-FACTORIAL HepG2 Assay for human Nuclear Factor Erythroid 2 Related Factor 2 (NFR2) response to Antioxidant Response Elements (ARE) (AID 2282992)
- study-conditions: HepG2 Attagene ARE/NRF2 reporter, transcription factor activity; actives raise or lower the signal
Activity calls are given as the source filed them. Rule for the calls: active = hit-call score of the fitted dose curve at least 0.9, where 1 is the maximum; inactive = score below 0.9.
Hi! Could you answer with just one of these? 1 (yes) for active, 0 (no) for inactive

QUERY: Recorded test call requested for CCCCCOC(=O)c1ccccc1C(=O)OCCCCC
RESULT: 1 (yes)

QUERY: Recorded test call requested for OCCCl
RESULT: 0 (no)

QUERY: Recorded test call requested for CCOc1cccc(C2(N3CCN(c4ccccc4)CC3)CCC(C)CC2)c1 (stereo not given)
RESULT: 0 (no)

QUERY: Recorded test call requested for OCCCBr
RESULT: 0 (no)

QUERY: Recorded test call requested for Nc1ccc(Oc2ccc(N)cc2)cc1
RESULT: 0 (no)

QUERY: Recorded test call requested for Cc1cc(N=Nc2ccccc2C)ccc1N
RESULT: 1 (yes)

QUERY: Recorded test call requested for Cc1ccc(N)cc1
RESULT: 0 (no)

QUERY: Recorded test call requested for Nc1ccc([N+](=O)[O-])cc1
RESULT: 0 (no)

QUERY: Recorded test call requested for N#CC(Br)(Br)C(N)=O
RESULT: 1 (yes)

QUERY: Recorded test call requested for CC(C)(OOC(C)(C)c1ccccc1)c1ccccc1
RESULT: 1 (yes)

QUERY: Recorded test call requested for [Cl-].[Cl-].[Hg+2]
RESULT: 1 (yes)

QUERY: Recorded test call requested for CCCCCCCCCCCCCN1CC(C)OC(C)C1 (stereo not given)
RESULT: 1 (yes)

QUERY: Recorded test call requested for CCC12COCN1COC2
RESULT: 0 (no)

QUERY: Recorded test call requested for CC(C)N(Cc1ccccc1)C(=O)C(C)(C)C
RESULT: 0 (no)

QUERY: Recorded test call requested for N#CC(Br)Br
RESULT: 1 (yes)

QUERY: Recorded test call requested for Clc1ccc(C(c2ccc(Cl)cc2)C(Cl)(Cl)Cl)cc1
RESULT: 1 (yes)

QUERY: Recorded test call requested for CC(C)(O)c1cnn2c(-c3ccc(F)c(-c4c(F)cccc4C#N)c3)cnc2n1
RESULT: 1 (yes)

QUERY: Recorded test call requested for CC(C)(C)C(O)(CCc1ccc(Cl)cc1)Cn1cncn1 (stereo not given)
RESULT: 1 (yes)

QUERY: Recorded test call requested for Oc1ccccc1Cl
RESULT: 1 (yes)

QUERY: Recorded test call requested for Oc1ccc2ccc3cccc4ccc1c2c34
RESULT: 0 (no)

QUERY: Recorded test call requested for Clc1ccccc1Cl
RESULT: 0 (no)

QUERY: Recorded test call requested for CCCCC(CC)COC(=O)c1ccc(C(=O)OCC(CC)CCCC)c(C(=O)OCC(CC)CCCC)c1 (stereo not given)
RESULT: 0 (no)

QUERY: Recorded test call requested for CC(O)CCO (stereo not given)
RESULT: 0 (no)

QUERY: Recorded test call requested for Clc1ccc(Cl)c(Cl)c1
RESULT: 0 (no)

QUERY: Recorded test call requested for O=Cc1ccco1
RESULT: 0 (no)

QUERY: Recorded test call requested for O=C1CCCO1
RESULT: 0 (no)

QUERY: Recorded test call requested for O=C(Nc1ccccc1)c1ccccc1I
RESULT: 1 (yes)

QUERY: Recorded test call requested for CN(C)c1ccccc1
RESULT: 0 (no)

QUERY: Recorded test call requested for [As]#[In]
RESULT: 0 (no)

QUERY: Recorded test call requested for CC(C)COC(=O)c1ccccc1C(=O)OCC(C)C
RESULT: 1 (yes)

QUERY: Recorded test call requested for Nc1ccc(Cc2ccc(N)cc2)cc1
RESULT: 0 (no)

QUERY: Recorded test call requested for ClC1=C(Cl)[C@]2(Cl)[C@H]3[C@H]([C@@H]4C=C[C@H]3C4)[C@@]1(Cl)C2(Cl)Cl
RESULT: 1 (yes)

QUERY: Recorded test call requested for CCCCOC(=O)c1ccccc1C(=O)OCc1ccccc1
RESULT: 1 (yes)

QUERY: Recorded test call requested for Cc1cccc(N)c1N
RESULT: 1 (yes)

QUERY: Recorded test call requested for CN(C)c1ccc(C(=O)c2ccc(N(C)C)cc2)cc1
RESULT: 0 (no)

QUERY: Recorded test call requested for Cc1ccc(N=C=O)cc1N=C=O
RESULT: 0 (no)

QUERY: Recorded test call requested for O=C(Oc1ccc(Br)cc1)N1CCN2CCC1CC2
RESULT: 0 (no)

QUERY: Recorded test call requested for Nc1cc(Cl)cc(C(=O)O)c1Cl
RESULT: 0 (no)

QUERY: Recorded test call requested for Clc1ccc(C(c2ccc(Cl)cc2)C(Cl)Cl)cc1
RESULT: 1 (yes)

QUERY: Recorded test call requested for CCC(C)c1ccc(O)cc1 (stereo not given)
RESULT: 1 (yes)

QUERY: Recorded test call requested for O=P(OCCCl)(OCCCl)OCCCl
RESULT: 0 (no)

QUERY: Recorded test call requested for CCC[CH2][Sn]([Cl])([CH2]CCC)[CH2]CCC
RESULT: 1 (yes)

QUERY: Recorded test call requested for C[N+](C)(C)CC1CO1 (stereo not given)
RESULT: 0 (no)

QUERY: Recorded test call requested for COP(=S)(OC)SCN1C(=O)c2ccccc2C1=O
RESULT: 0 (no)

QUERY: Recorded test call requested for CCCSC(=O)N(CCC)CCC
RESULT: 0 (no)

QUERY: Recorded test call requested for C1=Cc2cccc3cccc1c23
RESULT: 0 (no)

QUERY: Recorded test call requested for CS(=O)(=O)NC(=O)c1cc(Oc2ccc(C(F)(F)F)cc2Cl)ccc1[N+](=O)[O-]
RESULT: 0 (no)

QUERY: Recorded test call requested for O=C(O)C1C2CCC(O2)C1C(=O)O (stereo not given)
RESULT: 1 (yes)

QUERY: Recorded test call requested for CC(C)(C)OOC(=O)c1ccccc1
RESULT: 1 (yes)

QUERY: Recorded test call requested for OCCOCCO
RESULT: 0 (no)
